Measured values drawn from patent US8288379B2 for this set.

molecules and their reported IC50
# subject of test: FRAP1 (mTOR) kinase (Homo sapiens, UniProt P42345)
# Sequence (P42345 1360-2549 limits assumed): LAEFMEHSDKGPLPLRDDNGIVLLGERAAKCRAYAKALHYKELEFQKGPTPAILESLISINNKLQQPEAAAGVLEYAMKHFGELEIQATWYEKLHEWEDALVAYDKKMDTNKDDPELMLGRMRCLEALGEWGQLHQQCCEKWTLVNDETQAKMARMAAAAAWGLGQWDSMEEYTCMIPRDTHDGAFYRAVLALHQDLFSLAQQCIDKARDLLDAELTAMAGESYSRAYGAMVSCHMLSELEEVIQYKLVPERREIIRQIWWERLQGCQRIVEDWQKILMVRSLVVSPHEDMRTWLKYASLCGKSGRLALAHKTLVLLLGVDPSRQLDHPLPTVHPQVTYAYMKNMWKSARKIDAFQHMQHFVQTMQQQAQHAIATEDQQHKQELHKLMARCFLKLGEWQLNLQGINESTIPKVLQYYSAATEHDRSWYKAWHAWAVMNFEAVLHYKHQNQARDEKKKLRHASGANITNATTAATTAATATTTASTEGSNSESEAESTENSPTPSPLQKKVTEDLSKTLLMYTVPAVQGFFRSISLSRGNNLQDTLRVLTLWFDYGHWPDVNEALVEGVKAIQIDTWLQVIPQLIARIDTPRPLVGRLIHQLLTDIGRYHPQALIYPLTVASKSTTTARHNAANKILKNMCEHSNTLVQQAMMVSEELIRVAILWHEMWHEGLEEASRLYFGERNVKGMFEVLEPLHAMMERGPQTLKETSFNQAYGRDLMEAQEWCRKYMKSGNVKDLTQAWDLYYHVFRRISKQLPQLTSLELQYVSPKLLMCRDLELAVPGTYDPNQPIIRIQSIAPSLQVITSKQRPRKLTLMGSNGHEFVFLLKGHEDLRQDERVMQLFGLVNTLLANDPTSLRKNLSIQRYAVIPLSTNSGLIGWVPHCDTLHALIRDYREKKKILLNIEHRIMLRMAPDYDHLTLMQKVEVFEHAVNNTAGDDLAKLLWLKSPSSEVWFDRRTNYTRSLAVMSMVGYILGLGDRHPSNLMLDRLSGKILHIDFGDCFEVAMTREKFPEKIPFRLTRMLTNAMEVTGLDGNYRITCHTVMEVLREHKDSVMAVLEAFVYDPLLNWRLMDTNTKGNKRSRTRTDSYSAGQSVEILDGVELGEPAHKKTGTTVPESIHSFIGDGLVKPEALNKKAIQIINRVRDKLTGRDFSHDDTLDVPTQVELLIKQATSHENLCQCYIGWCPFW
# assay summary: Inhibition of mTOR-induced p-4E-BP1 phosphorylation (TR-FRET mTOR Activity Kit; Invitrogen)
# applied conditions: 400 nM GFP-4E-BP1 substrate, ~150 ng/mL mTOR, one hour at room temperature
Reply numerically in nM, unit not repeated.

| given smiles | unit info | IC50 |
| --- | --- | --- |
| C=CCn1nc(-c2ccc(C)nc2)c2c1-c1sc(NC(C)=O)nc1CCC2 | nM | 899 |

Exercise: Which IC50 reading was recorded for the molecule "COCCC(=O)Nc1nc2c(s1)-c1c(c(-c3ccc(C)nc3)nn1-c1ccccc1C)CCC2" ?
Key: 698

Exercise: Which IC50 reading was recorded for the molecule "Cc1ccc(-c2nn(-c3ccccc3C)c3c2CCCc2nc(NC(=O)NCCN(C)C)sc2-3)cn1" ?
Key: 1280
